tested on: Plasmodium berghei; assay: Screen against P. berghei liver stage (PbLuc), transformed with Luciferase, at 10uM; assay type: functional, HepG2; conditions: tested at 10 uM
About 8,600 (12%) of roughly 69,000 compounds showed an effect of 50% or more. For the sample, strong results were picked, then their nearest neighbours and some compounds at random.
Measured INHIBITION, listed per entry.
// return numeric value only (unit: %, not printed)

Known results for molecules:
Nc1nc(N2CCCCCC2)ncc1C(=O)NCc1ccc(F)c(Cl)c1; 43.8
O=C(CC1CC1)N1CCC2(COCc3cnc(-c4cccnc4)nc32)C1 (centres undefined); 42.1
CCn1nc(C)c(CNC(=O)c2nnc3ccccc3n2)c1C; 58.2
Cc1noc(CN2CCC(c3ccnn3CCO)CC2)n1; 49.6
Fc1ccccc1CC1CCN(Cc2ccccn2)CC1; 45.2

q: Return reported INHIBITION; argument: O=C(NCC1CC1)c1nnc2ccc(Cl)cc2n1
a: 5.21

q: Return reported INHIBITION; argument: CN(CCc1ccncc1)CC1CCCN1c1cccnn1 (centres undefined)
a: -69.3

q: Return reported INHIBITION; argument: CN(Cc1ccccc1)c1cnn(CC2COCCO2)c(=O)c1 (centres undefined)
a: 28.2

q: Return reported INHIBITION; argument: COc1ccccc1CN(CC1CCCO1)C(=O)c1csnn1 (centres undefined)
a: 18.4

---

test system: Plasmodium berghei; test: Screen against P. berghei liver stage (PbLuc), transformed with Luciferase, at 10uM; format: functional, HepG2; conditions: tested at 10 uM
About 8,600 (12%) of roughly 69,000 compounds showed an effect of 50% or more. This excerpt belongs to a sample that is enriched for strong results.
Measured INHIBITION, listed per entry.
// return numeric value only (unit: %, not printed)

Cc1cc(C)n(-c2ccc(C(=O)NCC(CO)Cc3cccs3)cc2)n1 (centres undefined); 23.9
CCN(CC1CCOC1)C(=O)c1ccccc1N1CCOCC1 (centres undefined); 26.8
CCS(=O)(=O)N1Cc2c(Cn3ccnc3)nn(C)c2C1; 26.5
O=C(CCCOc1ccccc1F)Nc1cc[nH]n1; 11.5
Cc1noc(CS(=O)(=O)C(C)C(=O)N(C)c2ccccc2)n1 (centres undefined); 50.8

q: Return reported INHIBITION; argument: Cc1ccc(NCc2cccc3cn[nH]c23)cc1OC1CCOC1 (centres undefined)
a: -16.8

q: Return reported INHIBITION; argument: Cc1cc(NC(=O)CN(c2ccccc2)C(C)C)on1
a: 13

---

tested on: Plasmodium berghei; experiment: Screen against P. berghei liver stage (PbLuc), transformed with Luciferase, at 10uM; format: functional, HepG2; settings: tested at 10 uM
The whole screen tested about 69,000 compounds, of which about 8,600 (12%) showed an effect of 50% or more. The sample as a whole holds a higher share of strong results than the screen did.
Endpoint Name: INHIBITION (%)
// return numeric value only (unit: %, not printed)

Cc1ncc(-c2ccnc(N3CCN(C)CC3)n2)c(-c2cccnc2)n1; 21.9
CN1CCCN(c2nccc(-c3c[nH]nc3-c3ccncc3)n2)CC1; 42.6
Cc1nc(CN2C[C@@H]3CN(C(=O)C4(C#N)CC4)C[C@@H]3C2=O)cs1; -20.2

// switching to the query compound
q: Return reported INHIBITION; argument: c1cncc(-c2nc(C3CC3)ncc2-c2ccnc(N3CCCC3)n2)c1
a: 51.5
